# TARGET_OF_ASSAY: human recombinant 5-HT2A receptor (Homo sapiens (Human), UniProt P28223)
# Sequence (P28223 whole entry): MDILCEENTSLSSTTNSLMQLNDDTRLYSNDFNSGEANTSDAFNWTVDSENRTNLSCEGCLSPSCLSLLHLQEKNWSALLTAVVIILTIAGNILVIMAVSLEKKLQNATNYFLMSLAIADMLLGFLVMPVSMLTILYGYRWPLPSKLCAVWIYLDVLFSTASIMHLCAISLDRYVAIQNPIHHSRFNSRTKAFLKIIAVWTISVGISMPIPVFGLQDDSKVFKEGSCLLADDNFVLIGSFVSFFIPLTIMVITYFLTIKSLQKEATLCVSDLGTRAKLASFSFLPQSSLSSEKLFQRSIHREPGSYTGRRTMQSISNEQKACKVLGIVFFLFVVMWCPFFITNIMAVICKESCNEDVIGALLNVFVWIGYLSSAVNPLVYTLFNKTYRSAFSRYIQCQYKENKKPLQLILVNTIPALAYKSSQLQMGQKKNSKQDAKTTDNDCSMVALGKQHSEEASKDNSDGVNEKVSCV
# EXPERIMENTAL_DETAILS: 5-HT2A receptor antagonism activity test (FLIPR Calcium 5 Assay Kit)
# MEASUREMENT_CONDITIONS: read-out: 5-HT2A receptor antagonism (IC50, mol/L)
ENDPOINT_LABEL: IC50 (nM)
The reply should contain only the number, in nM.

Problem: Field request: IC50 | item: Cl.O=C1COc2ccc(CCN3CCN(c4cccc5sccc45)CC3)cc2N1 [Compound of example 30, hydrochloride]
Solution: 42.1

Problem: I would be grateful if you could share the reported IC50 for Cc1nc2n(c(=O)c1CCN1CCN(c3cccc4sc(F)cc34)CC1)CCCC2O.Cl (stereo not shown) [Compound of example 131, hydrochloride] .
Solution: 51.3

Problem: What does the record list as IC50 for O=c1ccc2ccc(CCN3CCN(c4cccc5sccc45)CC3)cc2[nH]1 [Compound of example 9] ?
Solution: 95.6

Problem: // query IC50 value for entry O=c1[nH]c2ccc(CCN3CCN(c4cccc5sccc45)CC3)cc2o1 [Compound of example 68]
Solution: 4.82

====

# TARGET_OF_ASSAY: human recombinant 5-HT1A receptor (Homo sapiens (Human), UniProt P08908)
# Sequence (P08908 whole entry): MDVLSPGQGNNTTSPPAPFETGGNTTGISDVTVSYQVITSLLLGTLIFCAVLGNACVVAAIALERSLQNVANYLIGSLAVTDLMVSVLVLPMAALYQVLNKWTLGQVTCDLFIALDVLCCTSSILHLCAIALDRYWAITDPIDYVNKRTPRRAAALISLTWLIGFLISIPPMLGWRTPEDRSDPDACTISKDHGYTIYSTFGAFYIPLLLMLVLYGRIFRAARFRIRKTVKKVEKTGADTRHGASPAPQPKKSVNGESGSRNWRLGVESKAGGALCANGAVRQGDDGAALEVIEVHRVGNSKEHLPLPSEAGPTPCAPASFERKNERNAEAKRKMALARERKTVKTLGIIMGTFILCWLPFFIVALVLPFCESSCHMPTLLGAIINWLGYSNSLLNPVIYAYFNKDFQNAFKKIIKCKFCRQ
# EXPERIMENTAL_DETAILS: 5-HT1A receptor agonism activity test (inhibition of cAMP production, LANCE cAMP 384 Kit)
# MEASUREMENT_CONDITIONS: HEK293 cells expressing human recombinant 5-HT1A receptor; test concentration 0.1 nM-10000 nM; read-out: 5-HT1A receptor agonism (EC50, mol/L)
ENDPOINT_LABEL: EC50 (nM)
The figure you give is taken to be in nM; do not add the unit.

* Cl.Cn1c(=O)n(C)c2cc(CCN3CCN(c4cccc5sccc45)CC3)ccc21 [Compound of example 87, hydrochloride] | 4.5
* O=c1[nH]c(CCN2CCN(c3cccc4sccc34)CC2)nc2ccccc12 [Compound of example 35] | 41.9
* O=c1ccc2ccc(CCN3CCN(c4cccc5sccc45)CC3)cc2[nH]1 [Compound of example 9] | 0.972

Now let's try a different one.
Problem: Looking for the measured EC50 of Cl.O=C1CCc2ccc(CCN3CCN(c4cccc5sc(F)cc45)CC3)cc2N1 [Compound of example 64] , can you help?
Solution: 31.6

====

# TARGET_OF_ASSAY: human recombinant 5-HT2A receptor (Homo sapiens (Human))
# EXPERIMENTAL_DETAILS: 5-HT2A receptor antagonism activity test (FLIPR Calcium 5 Assay Kit)
# MEASUREMENT_CONDITIONS: read-out: 5-HT2A receptor antagonism (IC50, mol/L)
In this section, each of the compounds is paired with its reported IC50.
State the answer as a number, implicitly in nM.

Solved entries (count: 5):
* O=c1ccc2ccc(CCN3CCN(c4cccc5c4CCS5)CC3)cc2[nH]1 | 77.9
* COC(CN1CCN(c2cccc3sccc23)CC1)c1cccc2c1OCC(=O)N2 (stereo not shown) | 17
* CN1C(=O)CCc2ccc(CCN3CCN(c4cccc5sccc45)CC3)cc21 | 53.7
* O=C1CCc2ccc(CCN3CCC(c4cccc5sccc45)CC3)cc2N1 | 25
* O=C1CCc2ccc(CCN3CCN(c4cc(F)cc5sccc45)CC3)cc2N1 | 77.5

Problem: # returns recorded IC50 (system: human recombinant 5-HT2A receptor (Homo sapiens (Human))) for `COc1ccc2[nH]cc(CCN3CCN(c4cccc5sccc45)CC3)c2c1`
Solution: 25.5

Problem: Record `O=C1Cc2cc(CCN3CCN(c4cccc5sc(F)cc45)CC3)ccc2N1` : what is its IC50 with human recombinant 5-HT2A receptor (Homo sapiens (Human))?
Solution: 16.8
